Each recorded value in this set is attributed to ChEMBL document CHEMBL5038658.

target: 5'-nucleotidase (Homo sapiens, UniProt P21589)
Sequence (P21589 whole entry): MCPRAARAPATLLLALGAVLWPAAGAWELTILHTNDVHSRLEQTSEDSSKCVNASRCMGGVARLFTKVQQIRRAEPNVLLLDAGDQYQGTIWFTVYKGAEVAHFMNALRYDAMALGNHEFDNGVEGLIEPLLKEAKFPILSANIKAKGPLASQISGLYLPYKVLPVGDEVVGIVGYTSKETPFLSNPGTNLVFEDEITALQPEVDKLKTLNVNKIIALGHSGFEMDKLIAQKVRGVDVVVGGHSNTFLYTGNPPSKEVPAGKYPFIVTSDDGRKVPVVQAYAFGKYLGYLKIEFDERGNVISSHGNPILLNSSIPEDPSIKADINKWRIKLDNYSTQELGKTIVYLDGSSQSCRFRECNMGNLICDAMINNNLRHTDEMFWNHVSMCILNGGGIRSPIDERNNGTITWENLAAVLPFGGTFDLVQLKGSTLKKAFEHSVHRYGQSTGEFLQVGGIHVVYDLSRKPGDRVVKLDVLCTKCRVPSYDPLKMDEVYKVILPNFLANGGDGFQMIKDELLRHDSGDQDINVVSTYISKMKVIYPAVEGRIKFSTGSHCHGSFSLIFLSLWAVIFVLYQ
For each entry below, report its pKi value.
Answers are plain numbers, as −log10 of the molar value.

Use the examples below as a reference point.
INSERT INTO measurements (smiles_text, obs_value) VALUES
  ('Cn1c(=O)n([C@@H]2O[C@H](COP(=O)(O)CP(=O)(O)O)[C@@H](O)[C@H]2O)cc/c1=N/OCc1ccc(C(F)(F)F)cc1', 8.97),
  ('CCc1ccc(CO/N=c2/ccn([C@@H]3O[C@H](COP(=O)(O)CP(=O)(O)O)[C@@H](O)[C@H]3O)c(=O)n2C)cc1', 8.46),
  ('Cn1c(=O)n([C@@H]2O[C@H](COP(=O)(O)CP(=O)(O)O)[C@@H](O)[C@H]2O)cc/c1=N/OCc1ccc(C(=O)NCCC(=O)O)cc1', 8.58),
  ('Cn1c(=O)n([C@H]2[C@H](O)[C@H](O)[C@]3(COP(=O)(O)CP(=O)(O)O)C[C@H]23)cc/c1=N/OCc1ccc(Cl)cc1', 7.23),
  ('Cn1c(=O)n([C@@H]2O[C@H](COP(=O)(O)CP(=O)(O)O)[C@@H](O)[C@H]2O)cc/c1=N/OCc1ccc(C(=O)O)cc1', 7.85);

For each of the molecules below, note its pKi.
1. Cn1c(=O)n([C@@H]2O[C@H](COP(=O)(O)CP(=O)(O)O)[C@@H](O)[C@H]2O)cc/c1=N/OCc1ccc(Br)cc1
2. Cn1c(=O)n([C@@H]2O[C@H](COP(=O)(O)CP(=O)(O)O)[C@@H](O)[C@H]2O)cc/c1=N/OCc1cccc(C(F)(F)F)c1
3. O=c1[nH]c(=O)n([C@@H]2O[C@H](COP(=O)(O)CP(=O)(O)O)[C@@H](O)[C@H]2O)cc1F

[9.36, 8.90, 5.60]
